Values were extracted from PubChem BioAssay AID449762.

Assay: M. tuberculosis growth inhibition, HTS (AID 449762);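 note: bacterial growth assessed after seven days of incubation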
Conditions: M. tuberculosis H37Rv growth inhibition, 7H9 media; at 25 µM; active compounds read high
Hit rate of the full screen: of about 330,000 compounds, about 1,900 (0.58%) were called active. Inconclusive results (about 4%) are left out. A selection follows. Measured potencies and affinities stand elsewhere.
Below, each entry is listed with its recorded inhibition.
# number only, unit % dropped from output

{"compound": "Fc1ccc(N2CCN(C(=S)NCc3ccco3)CC2)cc1", "inhibition, %": 1.09}
{"compound": "Clc1cccc(C2CCN(Cc3nc(CC4CC4)no3)C2)c1 (configuration not stated)", "inhibition, %": 16.3}

The reported value for "Cn1c(=O)n(C)c2cc(NC(=O)CCl)ccc21" in terms of inhibition is 64.7

The reported value for "c1ccc(-c2cc3ccccc3nc2N2CCCC2)cc1" in terms of inhibition is 4.32

The reported value for "CCOc1ccccc1-n1nnnc1SCC(=O)OC" in terms of inhibition is 3.09

The reported value for "O=C(COc1ccc(Cl)cc1Cl)N/N=C/c1cccnc1" in terms of inhibition is -6.12
